METHOD SUMMARY: NCI Yeast Anticancer Drug Screen. Data for the sgs1 mgt1 strain (AID 161);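 note: 0% = growth of cultures given vehicle only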
TEST PARAMETERS: S. cerevisiae sgs1 mgt1 strain, at 5.0 µM (retest, dose inferred, filed as 0.5)
Compounds without any hit were thinned out: in the full panel of roughly 79,000, 15% have a hit. Active and inactive are the calls of the source. Cut-off read from the data, not from the text of the source: active = growth inhibition above about 70%; inactive = the rest.
Outcome codes: active, inactive

- COMPOUND: "COc1ccccc1C(c1cc2c(cc1O)OCO2)N1CCOCC1 (stereo not drawn)"
  CLASS: "inactive"
- COMPOUND: "C/C(=N\\NC(=S)N1CCCC1)c1nc2ncccc2[nH]1"
  CLASS: "inactive"
- COMPOUND: "CCCCCCCCCCCCCCC(O)C[N+](C)(CCO)CCO (stereo not drawn)"
  CLASS: "inactive"
- COMPOUND: "CCCCCCCCCCNC(=O)CBr"
  CLASS: "inactive"
- COMPOUND: "CCC[CH2][Sn]([S][Sn]([CH2]CCC)([c]1ccccc1)[c]1ccccc1)([c]1ccccc1)[c]1ccccc1"
  CLASS: "active"
- COMPOUND: "Cc1cc(O)c(/C=N/C(=S)Nc2ccc(S(N)(=O)=O)cc2)c(=O)o1"
  CLASS: "inactive"
- COMPOUND: "O=C(Nc1cccc(C(F)(F)F)c1)O/N=C(/Cl)CCl"
  CLASS: "inactive"
- COMPOUND: "COc1ccc(-c2c(CO)cc(OC)c(OC)c2OC)c(CO)c1"
  CLASS: "inactive"
- COMPOUND: "O=S(=O)(c1cc(Cl)ccc1Cl)N1CCc2ccccc2C1"
  CLASS: "inactive"
- COMPOUND: "C=C1CC(Cn2cc(C)c(=O)[nH]c2=O)(c2ccc(Cl)cc2)OC1=O (stereo not drawn)"
  CLASS: "inactive"
- COMPOUND: "CC(=O)OCc1cc2ccccc2nc1C(Br)(Br)Br"
  CLASS: "inactive"
- COMPOUND: "Oc1ccc(Cc2ccccc2)cc1Cl"
  CLASS: "inactive"
- COMPOUND: "O=[N+]([O-])c1ccc2c(c1)[n+]([O-])c1[nH]c3ccccc3c1[n+]2[O-] (tested in a mixture with another compound)"
  CLASS: "inactive"
- COMPOUND: "CCOc1ccccc1C(=O)Nc1cc(C)nn1-c1ccccc1"
  CLASS: "inactive"
- COMPOUND: "Clc1ccc(CSCCc2ccncc2)cc1Cl"
  CLASS: "inactive"
- COMPOUND: "CC[C@]1(O)C[C@H]2[C@@H]3CCc4cc(OC)ccc4[C@H]3CC[C@]2(C)[C@H]1O"
  CLASS: "inactive"
- COMPOUND: "CC(=O)Nc1[c-]cccc1.CC(=O)Nc1[c-]cccc1.CC(=O)O.CC(=O)O.[Pd].[Pd]"
  CLASS: "inactive"
- COMPOUND: "CN(C)CCCN=c1c2ccccc2n(O)c2ccccc12"
  CLASS: "inactive"

====

Catalogue of growth inhibition readings, one per entry.
METHOD SUMMARY: NCI Yeast Anticancer Drug Screen. Data for the mec2-1 strain (AID 157)
TEST PARAMETERS: S. cerevisiae mec2-1 strain, at 5.0 µM (retest, dose inferred, filed as 0.5), stronger effect = higher value
Compounds without any hit were thinned out: in the full panel of roughly 79,000, 15% have a hit.

- COMPOUND: "O=S1Nc2ccccc2S1 (stereo not drawn)"
  MEASURE UNIT: "%"
  growth inhibition: -1
- COMPOUND: "C/C(CC(O)(C(F)(F)F)C(F)(F)F)=N/Nc1ccc([N+](=O)[O-])cc1[N+](=O)[O-]"
  MEASURE UNIT: "%"
  growth inhibition: -11
- COMPOUND: "COC(=O)c1nc(Cl)nc(Cl)c1N"
  MEASURE UNIT: "%"
  growth inhibition: 14
- COMPOUND: "CCN(CCO)CC1OC(OC)C2OC(C)(C)OC12 (stereo not drawn)"
  MEASURE UNIT: "%"
  growth inhibition: 0
- COMPOUND: "NSc1ccc(N)s1"
  MEASURE UNIT: "%"
  growth inhibition: 6
- COMPOUND: "Nc1ncnc2c1ncn2CC(O)CN(CCO)CCO (stereo not drawn) (tested in a mixture with another compound)"
  MEASURE UNIT: "%"
  growth inhibition: -10
- COMPOUND: "CNCCN[C@@H]1c2cc3c(cc2[C@@H](c2cc(OC)c(O)c(OC)c2)[C@H]2C(=O)OC[C@@H]21)OCO3"
  MEASURE UNIT: "%"
  growth inhibition: 43
- COMPOUND: "O=C(CC(=O)c1ccccc1)CC(=O)c1ccccc1Br"
  MEASURE UNIT: "%"
  growth inhibition: -1
